// data source = the supplement of paper PMC11451515

Provide the recorded AUC of viability dose-response curve for the entries that follow.
# Test system: SEM cells
# Run Description: AUC of viability dose-response curve (% viability x log10 dose units); higher = less sensitive
# Test Conditions: RPMI 5 mM glucose + 10% dialyzed FBS; 48 h
Answers are plain numbers.

Below are worked cases with known answers.
Compound	AUC of viability dose-response curve
CCOC(=O)N1c2ccc(C(F)(F)F)cc2[C@@H](N(Cc2cc(C(F)(F)F)cc(C(F)(F)F)c2)C(=O)OC)C[C@H]1CC	468
CC(C)=CCC/C(C)=C/CC/C(C)=C/CSc1ccccc1C(=O)O	374
CCN(CC)CCOc1ccc(Cc2ccccc2)cc1	409

Batch lookup, AUC of viability dose-response curve per entry.
1. O=C1\C=C/C=C2/[C@H]3CNC[C@H](C3)CN12
2. CO[C@@]12[C@H](COC(N)=O)C/3=C(N1C[C@@H]4N[C@H]24)/C(=O)/C(=C(N)\C3=O)C
3. COc1ccc2cc3[n+](cc2c1OC)CCc1cc2c(cc1-3)OCO2
4. CN1CCN(c2c(F)cc3c(=O)c(C(=O)O)cn(CCF)c3c2F)CC1
5. C=C1C(=O)OC(CCCCCCCC)C1C(=O)O (centres undefined)

result:
1. 456
2. 435
3. 428
4. 466
5. 468

Batch lookup, AUC of viability dose-response curve per entry.
1. CC1=C(/C=C/C(C)=C/C=C/C(C)=C\C(=O)O)C(C)(C)CCC1
2. O=C/1NC(=O)C(=C1C2=CN=C3C=CC=C[N]23)/C4=C[N]5CCN(CC6=C5C4=CC=C6)C(=O)N7CCOCC7
3. Clc1cccc(-n2nnnc2NCc2ccccc2Oc2ccccn2)c1Cl
4. Cc1cn([C@H]2C=C[C@@H](CO)O2)c(=O)[nH]c1=O
5. N[S+](=O)([O-])c1cc2c(cc1Cl)NC(C(Cl)Cl)N[S+]2(=O)[O-] (centres undefined)
6. NC(=O)Nc1sc(-c2ccc(F)cc2)cc1C(N)=O

result:
1. 379
2. 151
3. 474
4. 469
5. 447
6. 402

Batch lookup, AUC of viability dose-response curve per entry.
1. N#C/C(=C\c1ccc(O)c(O)c1)C(=O)NCc1ccccc1
2. CCC(C)N1\N=C/N(C1=O)C2=CC=C(C=C2)N3CCN(CC3)C4=CC=C(OC[C@H]5CO[C@@](C[N]6C=NC=N6)(O5)C7=CC=C(Cl)C=C7Cl)C=C4 (some centres undefined)
3. CC1=CC=C2N=C(NC(=O)CS\C3=N\C4=C(\SCC4)C(=O)N3C5=CC=CC=C5)SC2=C1
4. Cc1ccc([N+](=O)[O-])cc1[S+](=O)([O-])N(C)/N=C/c1cnc2ccc(Br)cn12
5. CC[N+](CC)(CC)CCOc1cccc(OCC[N+](CC)(CC)CC)c1OCC[N+](CC)(CC)CC

result:
1. 440
2. 452
3. 446
4. 222
5. 477

* * *

# Tested on: P12-Ichikawa
# Run Description: cell viability relative to DMSO control; higher = less cytotoxic
# Test Conditions: HPLM + 10% dialyzed FBS; 48 h; 0.00702 µM
Endpoint Name: cell viability
Write down the value, and be sure its unit follows.

Molecule	Experimental System	cell viability
COC(=O)Nc1nc2cc(C(=O)c3ccc(F)cc3)ccc2[nH]1	P12-Ichikawa	100%

Batch lookup, cell viability per entry.
1. O=C(Nc1nnc(-c2ccco2)o1)c1cc(-c2ccccc2)nc2ccccc12
2. COc1ccc(OC)c(-c2nnc3ccc(-c4ccc(OC)c(O[C@@H]5CCOC5)c4)nn23)c1
3. C[C@]12Cc3cn[nH]c3C[C@@H]1CC[C@@H]1[C@@H]2CC[C@@]2(C)[C@H]1CC[C@]2(C)O
4. CCOc1cc2ncc(C#N)c(Nc3ccc(OCc4ccccn4)c(Cl)c3)c2cc1NC(=O)/C=C/CN(C)C
5. N#CC(c1ccnc(NCCc2cccnc2)n1)c1nc2ccccc2s1 (stereo unspecified)

result:
1: 103%; 2: 118%; 3: 113%; 4: 122%; 5: 120%

* * *

# Test system: P12-Ichikawa
# Run Description: cell viability relative to DMSO control; higher = less cytotoxic
# Test Conditions: RPMI 5 mM glucose + 10% FBS; 48 h; 0.19 µM
Endpoint Name: cell viability

Below are worked cases with known answers.
Compound	cell viability
C[C@@H]1O[C@@H](O[C@H]2C[C@@H](O)[C@]3(CO)[C@H]4[C@H](O)C[C@]5(C)[C@@H](C6=CC(=O)OC6)CC[C@]5(O)[C@@H]4CC[C@]3(O)C2)[C@H](O)[C@H](O)[C@H]1O	33.6%
N\C1=N\C2=C(N=C[N]2COCCO)C(=O)N1	99.4%
C=C1C(=O)OC(CCCCCCCC)C1C(=O)O (centres undefined)	122%

The record that follows has no cell viability shown yet.
query: Indicate the recorded cell viability value for this compound: "CCn1c(-c2nonc2N)nc2c(C#CC(C)(C)O)ncc(OC[C@H]3CCCNC3)c21"
result: 56.4%

* * *

# System: SEM cells
# Run Description: cell viability relative to DMSO control; higher = less cytotoxic
# Test Conditions: HPLM + 10% dialyzed FBS; 48 h; 1.71 µM
Provide the recorded cell viability for the entries that follow.
One number for each entry, in %.

Compound	Experimental System	Reading Unit	cell viability
CCN(CC)CCOc1ccc(Cc2ccccc2)cc1	SEM cells	%	89.4
CCOC(=O)N1c2ccc(C(F)(F)F)cc2[C@@H](N(Cc2cc(C(F)(F)F)cc(C(F)(F)F)c2)C(=O)OC)C[C@H]1CC	SEM cells	%	113
CC(=O)OC[C@H]1O[C@@H]([S-])[C@H](OC(C)=O)[C@@H](OC(C)=O)[C@@H]1OC(C)=O.CCP(CC)CC.[Au+]	SEM cells	%	83.1
Clc1cccc(-n2nnnc2NCc2ccccc2Oc2ccccn2)c1Cl	SEM cells	%	125
CCN1C[C@H](C)[N]2C(=C(O)C3=C2\C(=N/N(CC4=CC=C(F)C(=C4)Cl)C3=O)C(=O)NC)C1=O	SEM cells	%	50.4
COc1cc([C@@H](CC(=O)O)c2ccc(C)c(CN3C[C@@H](C)Oc4ccccc4[S+]3(=O)[O-])c2)cc2nnn(C)c12	SEM cells	%	102

Batch lookup, cell viability per entry.
1. O=C1CCC[C@@H]2[C@H]3CCCN4CCC[C@@H](CN12)[C@@H]34
2. COc1ccc(C(CN(C)C)C2(O)CCCCC2)cc1 (stereo not drawn)

result:
1: 78.1; 2: 107

* * *

# Tested on: SEM cells
# Run Description: cell viability relative to DMSO control; higher = less cytotoxic
# Test Conditions: HPLM + 10% dialyzed FBS; 48 h; 0.569 µM
Provide the recorded cell viability for the entries that follow.
Give bare numbers, in %.

Molecule	Reading Unit	cell viability
COc1cc2ncn(-c3cc(OCc4ccccc4[S+](C)(=O)[O-])c(C#N)s3)c2cc1OC	%	98.3
O=C1\C=C/C=C2/[C@H]3CNC[C@H](C3)CN12	%	114
Cc1c(-c2cccc3c(CCCOc4cccc5ccccc45)c(C(=O)O)n(Cc4cccnc4)c23)c(COc2ccc(N3CCN([S+](=O)([O-])N(C)C)CC3)cc2)nn1C	%	83.5
CC1=C(/C=C/C(C)=C/C=C/C(C)=C\C(=O)O)C(C)(C)CCC1	%	101
N#CC(c1ccnc(NCCc2cccnc2)n1)c1nc2ccccc2s1 (stereo not drawn)	%	134
CN1C(=O)C(=C\C2=C1N=C(NC3=CC=CC(=C3)C(O)=O)N=C2)/C4=C(Cl)C=CC=C4Cl	%	107
C[C@]12Cc3cn[nH]c3C[C@@H]1CC[C@@H]1[C@@H]2CC[C@@]2(C)[C@H]1CC[C@]2(C)O	%	83.6

The record that follows has no cell viability shown yet.
query: Indicate the recorded cell viability value for this molecule: "CN(C)c1ccc2nc3ccc(N(C)C)cc3[s+]c2c1"
result: 114

* * *

# System: P12-Ichikawa
# Run Description: cell viability relative to DMSO control; higher = less cytotoxic
# Test Conditions: RPMI 5 mM glucose + 10% dialyzed FBS; 48 h; 0.569 µM
# strict inequality: cell viability < 90% yields Condition met, everything else yields Condition not met

Take a look at these entries with their results.
Compound	Qualitative Label
C[C@]12Cc3cn[nH]c3C[C@@H]1CC[C@@H]1[C@@H]2CC[C@@]2(C)[C@H]1CC[C@]2(C)O	Condition not met
N\C1=N\C2=C(N=C[N]2COCCO)C(=O)N1	Condition not met
N#Cc1ccc(Oc2ccc3c(c2)COB3O)cc1	Condition not met
OC[C@H]1O[C@H](C[C@@H]1O)N2\C=C(F)/C(=O)NC2=O	Condition met
C=C1C(=O)OC(CCCCCCCC)C1C(=O)O (centres undefined)	Condition not met
COC(=O)Nc1nc2cc(C(=O)c3ccc(F)cc3)ccc2[nH]1	Condition met

query: I wonder whether C=C1C(=O)[C@@]23C(CC[C@@H]1[C@H]2O)[C@@]12CO[C@]3(O)[C@@H](O)[C@@H]1C(C)(C)CC[C@@H]2O (some centres undefined) has cell viability below 90%. Can you tell?
result: Condition not met

query: I wonder whether "Cc1c(-c2cccc3c(CCCOc4cccc5ccccc45)c(C(=O)O)n(Cc4cccnc4)c23)c(COc2ccc(N3CCN([S+](=O)([O-])N(C)C)CC3)cc2)nn1C" has cell viability below 90%. Can you tell?
result: Condition met
